target: human TLR8 (Homo sapiens); assay: TLR8 inhibition reporter assay (HEK-Blue cells, SEAP reporter, R848 stimulation); settings: HEK-Blue cells overexpressing human TLR8, SEAP reporter, R848 15.9 μM
Sequence (Q9NR97 27-1041): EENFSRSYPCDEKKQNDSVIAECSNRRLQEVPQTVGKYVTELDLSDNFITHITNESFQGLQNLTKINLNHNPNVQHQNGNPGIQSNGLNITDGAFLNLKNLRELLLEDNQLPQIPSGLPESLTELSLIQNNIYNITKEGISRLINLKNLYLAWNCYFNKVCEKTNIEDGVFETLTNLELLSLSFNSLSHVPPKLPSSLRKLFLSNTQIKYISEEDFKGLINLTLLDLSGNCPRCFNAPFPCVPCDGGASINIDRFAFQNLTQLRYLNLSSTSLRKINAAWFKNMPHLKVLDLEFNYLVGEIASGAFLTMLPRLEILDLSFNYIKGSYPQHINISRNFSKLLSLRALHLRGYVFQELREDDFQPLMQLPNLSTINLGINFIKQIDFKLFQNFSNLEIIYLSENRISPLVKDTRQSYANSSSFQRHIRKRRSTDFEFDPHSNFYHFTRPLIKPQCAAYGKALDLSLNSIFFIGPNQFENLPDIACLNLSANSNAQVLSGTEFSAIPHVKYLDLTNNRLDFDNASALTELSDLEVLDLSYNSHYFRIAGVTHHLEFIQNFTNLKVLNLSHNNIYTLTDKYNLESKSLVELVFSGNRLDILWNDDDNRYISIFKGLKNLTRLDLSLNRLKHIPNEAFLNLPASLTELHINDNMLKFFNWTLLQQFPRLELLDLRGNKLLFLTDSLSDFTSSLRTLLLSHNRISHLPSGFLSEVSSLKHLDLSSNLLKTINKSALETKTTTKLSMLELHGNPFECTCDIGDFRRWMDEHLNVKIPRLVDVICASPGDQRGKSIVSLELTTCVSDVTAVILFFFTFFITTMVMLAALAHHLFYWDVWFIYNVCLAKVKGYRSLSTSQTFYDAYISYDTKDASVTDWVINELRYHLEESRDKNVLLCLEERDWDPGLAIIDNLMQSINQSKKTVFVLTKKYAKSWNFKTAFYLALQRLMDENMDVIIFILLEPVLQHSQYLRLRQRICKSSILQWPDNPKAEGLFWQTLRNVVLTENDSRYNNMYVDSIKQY
reported_metric: log10 IC50 (log10 of the value in nM)
Please keep in mind that the values are log10 of IC50 expressed in nM.

(Q) Determine from records and report log10 IC50 for Cc1c(C(=O)NC2CCN(C(C)C)CC2)n[nH]c1-c1cc(C)c2ncnn2c1
(A) 1.13

(Q) Determine from records and report log10 IC50 for Cc1cc(-c2[nH]nc(C(=O)N3CCC(N(C)C)CC3)c2C(C)C)cn2ncnc12
(A) 0.31

(Q) Determine from records and report log10 IC50 for Cc1cc(-c2c(C(C)C)c(C(=O)NC3CCN(CC(F)(F)F)CC3)nn2CC(F)(F)F)cn2ncnc12
(A) 0.79

(Q) Determine from records and report log10 IC50 for CCC(C)N1CCC(NC(=O)c2n[nH]c(-c3cc(C)c4ncnn4c3)c2C(C)C)CC1 (centres unmarked)
(A) 1.50

(Q) Determine from records and report log10 IC50 for Cc1cc(-c2[nH]nc(C3CCC(N4CCN(C)CC4)CC3)c2C(C)C)cn2ncnc12 (single isomer, unassigned) [Example 287]
(A) -0.27

(Q) Determine from records and report log10 IC50 for Cc1cc(-c2[nH]nc(C(=O)N3CC[C@H](N)C3)c2C(C)C)cn2ncnc12
(A) -0.10

(Q) Determine from records and report log10 IC50 for CCN1CCc2nc(-c3n[nH]c(-c4cc(C)c5ncnn5c4)c3C(C)C)ncc2C1
(A) 0.08

(Q) Determine from records and report log10 IC50 for Cc1cc(-c2[nH]nc(C3CCC(N4CCOCC4)CC3)c2C(C)C)cn2ncnc12 (single isomer, unassigned) [Example 290]
(A) 0.04

(Q) Determine from records and report log10 IC50 for CNC(=O)CN1CCC(NC(=O)c2n[nH]c(-c3cc(C)c4ncnn4c3)c2C(C)C)CC1
(A) 0.75

(Q) Determine from records and report log10 IC50 for Cc1cc(-c2[nH]nc(C3CCC(N(C)C(=O)CN(C)C)CC3)c2C(C)C)cn2ncnc12 (centres unmarked) [Example 296]
(A) -0.14

(Q) Determine from records and report log10 IC50 for Cc1cc(-c2[nH]nc(C3CCC(N4CCC(N(C)C)CC4)CC3)c2C(C)C)cn2ncnc12 (single isomer, unassigned) [Example 293]
(A) -0.42

(Q) Determine from records and report log10 IC50 for Cc1cc(-c2[nH]nc(-c3ccc4c(c3)CCN(CC(N)=O)C4)c2C(C)C)cn2ncnc12
(A) 2.09

(Q) Determine from records and report log10 IC50 for Cc1cc(-c2[nH]nc(C(=O)N(C)Cc3cccnc3)c2C(C)C)cn2ncnc12
(A) 0.92

(Q) Determine from records and report log10 IC50 for Cc1cc(-c2[nH]nc(-c3nc4ccc(NC(C)C)cc4s3)c2C(C)C)cn2ncnc12
(A) 0.96

(Q) Determine from records and report log10 IC50 for CC(C)c1c(C(=O)NC2CCN(C(C)C)CC2)n[nH]c1-c1ccnc2[nH]ncc12
(A) -0.10

(Q) Determine from records and report log10 IC50 for Cc1cc(-c2[nH]nc(C(=O)N[C@@H]3CCCN(C(C)C)C3)c2C(C)C)cn2ncnc12
(A) 1.17

(Q) Determine from records and report log10 IC50 for COc1cc(-c2[nH]nc(-c3ccc(C4CCN(CC(N)=O)CC4)cn3)c2C(C)C)cn2ncnc12
(A) 2.15

(Q) Determine from records and report log10 IC50 for Cc1cc(-c2[nH]nc(C(=O)N[C@H]3CC[C@H](NCC(C)(C)C)CC3)c2C(C)C)cn2ncnc12
(A) 1.96

(Q) Determine from records and report log10 IC50 for Cc1cc(-c2[nH]nc(C(=O)NC3CCN(C4CCOCC4)CC3)c2CC(F)(F)F)cn2ncnc12
(A) 0.62

(Q) Determine from records and report log10 IC50 for CNC(=O)c1n[nH]c(-c2cc(C)c3ncnn3c2)c1C(C)C
(A) 0.46

(Q) Determine from records and report log10 IC50 for COc1cc(-c2[nH]nc(-c3nc4c(s3)CNCC4)c2C(C)C)cn2ncnc12
(A) 0.64

(Q) Determine from records and report log10 IC50 for COc1cc(-c2[nH]nc(-c3nc4c(s3)CN(C(C)C)CC4)c2C(C)C)cn2ncnc12
(A) 1.14

(Q) Determine from records and report log10 IC50 for Cc1cc(-c2[nH]nc(-c3ccc(N4CC(N(C)C)C4)cc3)c2C(C)C)cn2ncnc12
(A) 2.33

(Q) Determine from records and report log10 IC50 for COCC(C)N[C@H]1CC[C@H](NC(=O)c2n[nH]c(-c3cc(C)c4ncnn4c3)c2C(C)C)CC1 (some centres unmarked)
(A) -0.04

(Q) Determine from records and report log10 IC50 for Cc1cc(-c2[nH]nc(-c3ccc(N4CC(NC(C)C)C4)cc3)c2C(C)C)cn2ncnc12
(A) 2.54
